What CIC was measured for each of the following?
- Tested on: H9
- procedureText: In vitro anti viral activity against HIV-1 in human H9 T-lymphoid cell culture by fixed cell immunofluorescence assay
- Format: functional
Answers are plain numbers, in nM.

Worked examples follow.
Look up CIC of CC(C)(C)OC(=O)N[C@@H](Cc1ccc(O)cc1)[C@@H](O)C[C@@H](Cc1ccccc1)C(=O)NC1c2ccccc2C[C@H]1O (some centres undefined) and report it.
50

Look up CIC of CC(C)(C)OC(=O)N[C@@H](Cc1ccccc1)[C@@H](O)C[C@@H](Cc1ccc(OCCN2CCSCC2)cc1)C(=O)NC1c2ccccc2C[C@H]1O (some centres undefined) and report it.
50

Look up CIC of CC(C)(C)OC(=O)N[C@@H](Cc1ccccc1)[C@@H](O)C[C@@H](Cc1ccc(O)cc1)C(=O)N[C@H]1c2ccccc2C[C@H]1O and report it.
25

More entries:
Look up CIC of CC(C)(C)OC(=O)N[C@@H](Cc1ccc(O)cc1)[C@@H](O)C[C@@H](Cc1ccc(O)cc1)C(=O)NC1c2ccccc2C[C@H]1O (some centres undefined) and report it.
780
